System: Ruminococcus gnavus DSM 108212
Assay: fold change of 2-Phenylethylamine concentration vs plate DMSO controls (fold change (ratio)); higher = more amine produced, active = hit call of the paper (significant change in both replicates, either direction)
Conditions: incubation time: 27 h, anaerobic, 37 °C
Structures can show the parent of a compound that is named as a salt.
Assign MET whenever fold change of 2-Phenylethylamine concentration does not fall below 1; assign NOT MET whenever it does.

[
  {
    "compound": "CCC(=O)O[C@]1(C(=O)CCl)[C@@H](C)C[C@H]2[C@@H]3CCC4=CC(=O)C=C[C@]4(C)[C@@]3(F)[C@@H](O)C[C@@]21C [Clobetasol propionate] (20 µM)",
    "subject-of-test": "Ruminococcus gnavus DSM 108212",
    "class-label": "NOT MET"
  },
  {
    "compound": "CN(C)CCCSC(=N)N [Dimaprit dihydrochloride] (20 µM)",
    "subject-of-test": "Ruminococcus gnavus DSM 108212",
    "class-label": "MET"
  },
  {
    "compound": "C[C@@H]1CN(c2c(F)c(N)c3c(=O)c(C(=O)O)cn(C4CC4)c3c2F)C[C@H](C)N1 [Sparfloxacin] (20 µM)",
    "subject-of-test": "Ruminococcus gnavus DSM 108212",
    "class-label": "NOT MET"
  },
  {
    "compound": "COc1cc(N)cn[n+]1-c1ccccc1 [Amezinium metilsulfate] (20 µM)",
    "subject-of-test": "Ruminococcus gnavus DSM 108212",
    "class-label": "MET"
  },
  {
    "compound": "CC1CC(OC(=O)C(O)c2ccccc2)CC(C)(C)C1 (configuration not stated) [Cyclandelate] (20 µM)",
    "subject-of-test": "Ruminococcus gnavus DSM 108212",
    "class-label": "MET"
  }
]

Now for a further compound.
INPUT: Could you tell me if the measured fold change of 2-Phenylethylamine concentration of NC[C@@H]1O[C@@H](O[C@H]2[C@H](O)[C@@H](O[C@H]3O[C@H](CO)[C@@H](O)[C@H](N)[C@H]3O)[C@H](N)C[C@@H]2N)[C@@H](O)[C@H](O)[C@H]1O [Kanamycin A sulfate] (20 µM) reaches 1 or more?
OUTPUT: MET

----------
System: Ruminococcus gnavus DSM 108212
Assay: growth (OD595) fold change vs plate DMSO controls (fold change (ratio)); higher = more growth
Settings: incubation time: 27 h, anaerobic, 37 °C
parameter: growth
Lab note: record the figure alone, no unit after it.

Memo: C[C@]12CCC(=O)C=C1CC[C@@H]1[C@@H]2C(=O)C[C@@]2(C)[C@H]1CC[C@]2(O)C(=O)CO [Cortisone] (20 µM) , reported growth: 1.23

Documented growth of N#Cc1ccc(Oc2ccc3c(c2)COB3O)cc1 [Crisaborole] (20 µM) : 1.12

----------
Test system: Escherichia coli IAI1
Assay: fold change of Putrescine concentration vs plate DMSO controls (fold change (ratio)); higher = more amine produced, active = hit call of the paper (significant change in both replicates, either direction)
Details: incubation time: 27 h, anaerobic, 37 °C
Counter-ions that a name gives are not always drawn.
Assign class by fold change of Putrescine concentration: not lower than 1 means true; lower than 1 means false.

[
  {
    "compound": "CC[C@H]1OC(=O)C[C@@H](O)[C@H](C)[C@@H](O[C@@H]2O[C@H](C)[C@@H](O[C@H]3C[C@@](C)(O)[C@@H](O)[C@H](C)O3)[C@H](N(C)C)[C@H]2O)[C@@H](CC=O)C[C@@H](C)C(=O)/C=C/C(C)=C/[C@@H]1CO[C@@H]1O[C@H](C)[C@@H](O)[C@@H](OC)[C@H]1OC [Tylosin] (20 µM)",
    "class-label": "false"
  }
]

INPUT: Entry C=C1c2cccc(O)c2C(O)=C2C(=O)[C@]3(O)C(O)=C(C(N)=O)C(=O)[C@@H](N(C)C)[C@@H]3[C@@H](O)[C@H]12 [Methacycline hydrochloride] (20 µM) : is its fold change of Putrescine concentration no less than 1?
OUTPUT: false

INPUT: fold change of Putrescine concentration >= 1 for C[C@@H]1[C@H](O)[C@@H](C)/C=C/C=C/C=C/C=C/C=C/C=C/C=C/[C@H](O[C@@H]2O[C@H](C)[C@@H](O)[C@H](N)[C@@H]2O)C[C@@H]2O[C@](O)(C[C@@H](O)C[C@@H](O)[C@H](O)CC[C@@H](O)C[C@@H](O)CC(=O)O[C@H]1C)C[C@H](O)[C@H]2C(=O)O [Amphotericin B] (20 µM) ?
OUTPUT: true

INPUT: Say whether CC(=O)Nc1c(I)c(NC(C)=O)c(I)c(C(=O)O)c1I [Diatrizoic acid dihydrate] (20 µM) shows fold change of Putrescine concentration of 1 or more.
OUTPUT: true

INPUT: Given COc1cccc2c1C(=O)c1c(O)c3c(c(O)c1C2=O)C[C@@](O)(C(=O)CO)C[C@@H]3O[C@H]1C[C@H](N)[C@@H](O)[C@H](C)O1 [Epirubicin hydrochloride] (20 µM) , state whether its fold change of Putrescine concentration is at least 1.
OUTPUT: true

INPUT: Determine whether this compound has fold change of Putrescine concentration no lower than 1: Cn1nnnc1SCC1=C(C(=O)O)N2C(=O)[C@@H](NC(=O)[C@H](O)c3ccccc3)[C@H]2SC1 [Cefamandole sodium salt] (20 µM)
OUTPUT: false

INPUT: Entry COC(=O)[C@H]1[C@H]2C[C@@H]3c4[nH]c5cc(OC)ccc5c4CCN3C[C@H]2C[C@@H](OC(=O)c2cc(OC)c(OC)c(OC)c2)[C@@H]1OC [Reserpine] (20 µM) : is its fold change of Putrescine concentration no less than 1?
OUTPUT: false

Attribution: the supplement of paper PMC12494721
